This collection of values is drawn from paper PMC8988824.

experiment: clinical; conditions: male, human, in vivo, sc, 7.5 mg
endpointName: AUC(0-t) (ng·h/mL)
Give a bare numeral; the unit ng·h/mL is implied.

Qu. // returns reported AUC(0-t) for input CCNC(=O)[C@@H]1CCCN1C(=O)[C@H](CCCNC(=N)N)NC(=O)[C@H](CC(C)C)NC(=O)[C@@H](CC(C)C)NC(=O)[C@H](Cc1ccc(O)cc1)NC(=O)[C@H](CO)NC(=O)[C@H](Cc1c[nH]c2ccccc12)NC(=O)[C@H](Cc1c[nH]cn1)NC(=O)[C@@H]1CCC(=O)N1 [Leuprolide Acetate, Leuprolide acetate]
Ans. 999
